The reported measurements were obtained from patent EP4692089A1.

Target: AAK1 (30-330) protein (Homo sapiens)
Construct: (His)6x (N); TEV protease cleavage site (N)
Test: CETSA test of binding ability to AAK1 protein (Western blot)
pEC50: −log10 of the molar value.
outcome_measure: pEC50

Check out these entries, answers already filled in.
COc1ccnc2[nH]cc(-c3ccc(OC[C@](C)(N)CC(C)C)c(C(F)F)n3)c12 :: 7.00 to 8.00
CC(C)C[C@@](C)(N)COc1ccc(-c2c[nH]c3nc(C(F)(F)F)ccc23)nc1C(F)F :: 7.00 to 8.00
CC(C)C[C@](C)(N)COc1ccc(-c2ccnc3[nH]c(C(F)(F)F)nc23)nc1C(F)F :: 7.00 to 8.00
CC(C)C[C@](C)(N)COc1ccc(-c2ccnc(C(F)F)c2)nc1C(F)F [BMS-986176, reference compound] :: 6.00 to 7.00
Cc1nc2ccnn2c(-c2ccc(OC[C@](C)(N)CC(C)C)c(C(F)F)n2)c1F :: 6.00 to 7.00
CC(C)C[C@](C)(N)COc1ccc(-c2c[nH]c3ncc(Cl)cc23)nc1C(F)F :: > 8.00
CC(C)C[C@@](C)(N)COc1ccc(-c2ccnc3[nH]c(C(F)(F)F)nc23)nc1C(F)F :: 7.00 to 8.00
Cc1nc2ccnn2c(-c2ccc(OC[C@@](C)(N)CC(C)C)c(C(F)F)n2)c1F :: 7.00 to 8.00

Note: attention shifts to another entry.
Please report the measured pEC50 for COc1ccnc2[nH]cc(-c3ccc(OC[C@@](C)(N)CC(C)C)c(C(F)F)n3)c12 [Compound 16, tris(trifluoroacetate)] 7.00 to 8.00

* * *

Assay: Pharmacokinetic test in SD rats
Settings: male, SD, rat, plasma, po, 3 mg/kg
outcome_measure: Cmax

Please report the measured Cmax for CC(C)C[C@](C)(N)COc1ccc(-c2c[nH]c3ncc(F)cc23)nc1C(F)F [Compound 26] 0.325 µg/mL

* * *

Molecular target: AAK1 (30-330) protein (Homo sapiens, UniProt Q2M2I8)
Construct: (His)6x (N); TEV protease cleavage site (N)
Sequence (Q2M2I8 30-330): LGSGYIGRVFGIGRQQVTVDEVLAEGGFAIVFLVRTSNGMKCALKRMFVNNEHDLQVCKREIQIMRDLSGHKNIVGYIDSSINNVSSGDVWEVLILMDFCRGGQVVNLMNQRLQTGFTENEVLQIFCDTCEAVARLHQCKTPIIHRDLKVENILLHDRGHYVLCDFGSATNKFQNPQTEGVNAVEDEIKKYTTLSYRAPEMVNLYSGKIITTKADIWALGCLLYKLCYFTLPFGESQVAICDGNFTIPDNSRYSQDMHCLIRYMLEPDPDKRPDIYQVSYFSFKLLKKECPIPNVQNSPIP
Assay: CETSA test of binding ability to AAK1 protein (Western blot)
Text: Experimental objective: To detect the binding ability of compounds to AAK1 protein by means of a CETSA experiment. Background principle: The CETSA experiment is a molecular detection means for measuring the affinity between drugs and target proteins. […] On the contrary, the stability of the AAK1 protein after heating will be poorer, and the amount of the detected protein will be lower. […]
Counter-ions that a name gives are not always drawn.
Each item that follows carries a reported EC50.

CC(C)C[C@@](C)(N)COc1ccc(-c2cncc3[nH]c(C(F)(F)F)nc23)nc1C(F)F [Compound 13] :: 10 to 100 nM
CC(C)C[C@@](C)(N)COc1ccc(-c2ccnc3c(F)cnn23)nc1C(F)F [Compound 19] :: 10 to 100 nM
CC(C)C[C@](C)(N)COc1ccc(-c2c[nH]c3ncc(C(F)F)cc23)nc1C(F)F [Compound 28, formate] :: 10 to 100 nM
CC(C)C[C@](C)(N)COc1ccc(-c2cncc3[nH]c(C(F)(F)F)nc23)nc1C(F)F [Compound 12] :: 10 to 100 nM
CC(C)C[C@](C)(N)COc1ncc(-c2c[nH]c3ncc(C(F)F)cc23)c(C(F)(F)F)n1 [Compound 39] :: 10 to 100 nM

Note: attention shifts to another entry.
Answer briefly: EC50 recorded on AAK1 (30-330) protein (Homo sapiens, UniProt Q2M2I8) for Cc1cnc2[nH]cc(-c3ccc(OC[C@@](C)(N)CC(C)C)c(C(F)F)n3)c2c1 [Compound 45, diformate] < 10 nM
